Read-out: Interferon-gamma inducible Protein 10 (IP10), CXCL10 (gene 3627)
Experiment: BSK_hDFCGF_IP10: BioMAP Diversity Plus: hDFCGF Assay for Interferon-gamma inducible Protein 10 (IP10) Biomarker Activity (AID 2283053)
Conditions: primary human foreskin fibroblasts; actives raise or lower the signal
The source made the active and inactive calls. Rule for the calls: active = hit-call score of the fitted dose curve at least 0.9, where 1 is the maximum; inactive = score below 0.9.
Answer with one of the outcomes Y (active), N (inactive)

INSERT INTO results (compound, assigned_category) VALUES
  ('Cc1ccc(Nc2ccc(O)c3c2C(=O)c2ccccc2C3=O)cc1', 'N'),
  ('Nc1cc([N+](=O)[O-])ccc1O', 'N'),
  ('CN(CCOc1ccc(CC2SC(=O)NC2=O)cc1)c1ccccn1 (stereo unspecified)', 'Y'),
  ('Nc1cc([N+](=O)[O-])ccc1Cl', 'N'),
  ('CC(=O)[C@H]1CC[C@H]2[C@@H]3CC=C4C[C@@H](O)CC[C@]4(C)[C@H]3CC[C@]12C', 'N');

Please find the next compound below.
Entry CCCCC(CC)COCCC#N (stereo unspecified) : call = ?
Y

###

Biological target: Estrogen receptor (Homo sapiens)
Experiment: ATG_ERa_TRANS: Attagene TRANS-FACTORIAL HepG2 Assay for human Estrogen Receptor alpha (ERa) (AID 2282970)
Settings: HepG2 Attagene TRANS ERa GAL4 reporter, mRNA
Records with an inconclusive call do not appear. Active and inactive are the calls of the source. Rule for the calls: active = hit-call score of the fitted dose curve at least 0.9, where 1 is the maximum; inconclusive = response in the unintended direction; inactive = score below 0.9.
READOUT TYPE: AC50

INSERT INTO results (molecule, reported) VALUES
  ('CN1[C@@H]2CC(OC(=O)[C@H](CO)c3ccccc3)C[C@H]1[C@@H]1O[C@@H]12 (some centres undefined)', 'inactive'),
  ('CCn1c2ccccc2c2cc(N)ccc21', 'inactive'),
  ('CC1(C)[C@H](C(=O)OCc2cccc(Oc3ccccc3)c2)[C@@H]1C=C(Cl)Cl', 'inactive'),
  ('CC(=O)OCCC(C)CC(C)(C)C (centres undefined)', 'inactive'),
  ('OCCCCCO', '76.1 µM (active)');

// Cc1ccc(S)cc1 : AC50 value = 25.4 µM (active)

Field AC50 (entry NC(=O)Nc1ccc(Cl)cc1 ) reads inactive

Entry under test: Clc1cccc(Cl)n1 . Its AC50 was inactive

The reported value for CN(C)CCCN in terms of AC50 is inactive

Short answer for Nc1cccc(S(=O)(=O)c2cccc(N)c2)c1 : AC50 was inactive

Entry CC1COc2ccccc2N1C(=O)C(Cl)Cl (centres undefined) ; AC50 = inactive

Per the records, this molecule ( COc1cc2ncnc(Nc3cccc(Cl)c3)c2cc1OC ) has AC50 equal to inactive

AC50 recorded for this molecule, Clc1ccc2c(c1)C(N1CCNCC1)=Nc1ccccc1O2 , is 50.1 µM (active)

The molecule identified as Nc1ccc(F)c([N+](=O)[O-])c1 registered its AC50 at inactive

###

Assay: ATG_AP_1_CIS: Attagene CIS-FACTORIAL HepG2 Assay for human Activator Protein 1 (AP-1) (AID 2282931)
Conditions: HepG2 Attagene cis-factorial AP-1 reporter mRNA; actives raise or lower the signal
Procedure: ATG_CIS is a cell-based, multiplexed-readout assay that uses HepG2, a human liver cell line, with measurements taken at 24 hours after chemical dosing in a 24-well plate.ATG_AP_1_CIS is one of 52 assay component(s) measured or calculated from the ATG_CIS assay. […] This assay endpoint, ATG_AP_1_CIS, was analyzed with bidirectional fitting relative to DMSO as the negative control and baseline of activity. […]
Active and inactive are the calls of the source. The calls were made as follows: active = hit-call score of the fitted dose curve at least 0.9, where 1 is the maximum; inactive = score below 0.9.
READOUT TYPE: outcome

Example entries begin here.
INSERT INTO results (molecule, reported) VALUES
  ('Clc1ccc2c(c1)C(N1CCNCC1)=Nc1ccccc1O2', 'inactive'),
  ('ClCCCl', 'inactive'),
  ('CCCc1c(OCCCOc2ccc(OCC(=O)O)cc2)ccc(C(C)=O)c1O', 'inactive'),
  ('CC1(C)[C@H](C(=O)OCc2cccc(Oc3ccccc3)c2)[C@@H]1C=C(Cl)Cl', 'inactive');

Briefly, outcome measured for Nc1nc2ccc([N+](=O)[O-])cc2s1 : inactive

Recorded result, CCCCCCCCCCCCSC , outcome: inactive

Lookup result for CC(=O)OCCC(C)CC(C)(C)C (configuration not stated) ; measured outcome: inactive

###

Assay: CCTE_Shafer_MEA_acute_firing_rate_mean: CCTE's Neural Acute Assay for Mean Firing Rate, Shafer Lab (AID 2284009);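 note: analyzed for loss of signal so actives lower firing rate relative to DMSO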
Calls of active or inactive are those of the source. Rule for the calls: active = hit-call score of the fitted dose curve at least 0.9, where 1 is the maximum; inactive = score below 0.9.
READOUT TYPE: outcome

INSERT INTO results (given_smiles, readout_type, reported) VALUES
  ('NCCNCCN', 'outcome', 'inactive'),
  ('C=C[Si](OCC)(OCC)OCC', 'outcome', 'inactive'),
  ('CC(C)(COC(=O)c1ccccc1)COC(=O)c1ccccc1', 'outcome', 'inactive');

###

Test: TOX21_p53_BLA_p5_viability: Viability Assessment in the Tox21 HCT-116 p53 Agonism Beta-lactamase Assay, Phase 5 (AID 2283600)
Inconclusive results are not listed. The source made the active and inactive calls. Rule for the calls: active = hit-call score of the fitted dose curve at least 0.9, where 1 is the maximum; inconclusive = response in the unintended direction; inactive = score below 0.9.
Hello, when you answer, please use one of the following outcomes: TRUE for active, FALSE for inactive

INSERT INTO assay_data (molecule, assigned_category) VALUES
  ('O=C1OC2(c3cc(Br)c(O)c(Br)c3Oc3c2cc(Br)c(O)c3Br)c2c(Cl)c(Cl)c(Cl)c(Cl)c21', 'FALSE'),
  ('O=C(O)Cc1cccc2ccccc12', 'FALSE');

What call does the record list for CC(=O)C(=O)O ?
FALSE

Given CN(C)C(=N)N=C(N)N , state the outcome it received in this test.
FALSE

# outcome recorded in this test, key = CCC(C)(O)CCC=C(C)C (stereo not given)
FALSE

Short answer needed: outcome of this test for O=Nc1ccc(Nc2ccccc2)cc1 ?
FALSE

Would you mind telling me which call this test gave CC(C)(C)c1cc(CCC(=O)NN)cc(C(C)(C)C)c1O ?
FALSE

###

Molecular target: Peroxisome proliferator-activated receptor gamma (Homo sapiens) (UniProt P37231)
Sequence (P37231 whole entry, looked up): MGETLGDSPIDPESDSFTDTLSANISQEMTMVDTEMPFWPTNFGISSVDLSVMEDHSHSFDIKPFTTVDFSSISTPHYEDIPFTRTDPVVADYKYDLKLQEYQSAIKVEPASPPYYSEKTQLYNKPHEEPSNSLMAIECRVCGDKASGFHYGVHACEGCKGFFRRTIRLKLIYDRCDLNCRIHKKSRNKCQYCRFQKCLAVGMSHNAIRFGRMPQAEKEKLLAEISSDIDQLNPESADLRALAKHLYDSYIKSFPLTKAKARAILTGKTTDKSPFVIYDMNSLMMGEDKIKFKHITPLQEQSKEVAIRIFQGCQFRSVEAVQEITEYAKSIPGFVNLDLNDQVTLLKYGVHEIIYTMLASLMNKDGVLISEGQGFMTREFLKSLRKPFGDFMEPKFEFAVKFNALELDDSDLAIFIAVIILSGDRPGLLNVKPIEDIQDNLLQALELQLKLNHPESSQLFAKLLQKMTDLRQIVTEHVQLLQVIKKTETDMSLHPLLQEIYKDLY
Assay: NVS_NR_hPPARg: NovaScreen (NVS) Nuclear Receptor Binding Assay for human Peroxisome Proliferator-activated Receptor gamma (PPARg) (AID 2283370)
Inconclusive results are not listed. Active and inactive are the calls of the source. How the source made its calls: active means hit-call score of the fitted dose curve at least 0.9, where 1 is the maximum; inconclusive means response in the unintended direction; inactive means score below 0.9.
Lab note: assign the record to one of active, inactive

Would you please look over these solved cases?
INSERT INTO assay_data (compound, assigned_category) VALUES
  ('COC(C)CCO (stereo not drawn)', 'inactive'),
  ('CCC/C=C/C=O', 'inactive'),
  ('O=C1C(c2[nH]c3ccc(S(=O)(=O)O)cc3c2O)=Nc2ccc(S(=O)(=O)O)cc21', 'inactive'),
  ('CCCCC(CC)COC(=O)/C=C\C(=O)OCC(CC)CCCC (stereo not drawn)', 'inactive');

I'd appreciate the recorded outcome for CCCCCCCCCCCCCCCC(=O)OC[C@H](O)[C@H]1OC(=O)C(O)=C1O from this test.
active

Hey, what did the test say about CC(C)CCCCCCCOC(=O)c1ccc(C(=O)OCCCCCCCC(C)C)c(C(=O)OCCCCCCCC(C)C)c1 ?
inactive

Lab log entry: OCCN1CCNCC1 — outcome as called in the assay?
inactive

What did this assay record as the result for CCCCCCCCCCCCCCCC(=O)O ?
inactive

###

Read-out: TIMP metallopeptidase inhibitor 1 (TIMP1), TIMP1 (gene 7076)
Assay: BSK_hDFCGF_TIMP1: BioMAP Diversity Plus: hDFCGF Assay for TIMP metallopeptidase inhibitor 1 (TIMP1) Biomarker Activity (AID 2283062)
Details: primary human foreskin fibroblasts; actives raise or lower the signal
Active and inactive are the calls of the source. Rule for the calls: active = hit-call score of the fitted dose curve at least 0.9, where 1 is the maximum; inactive = score below 0.9.
Give one outcome, nothing more. List: active, inactive

Worked set:
INSERT INTO measurements (compound, assigned_category) VALUES
  ('Cc1ccc(Nc2ccc(O)c3c2C(=O)c2ccccc2C3=O)cc1', 'inactive'),
  ('CC(=O)O[C@]1(C(C)=O)CC[C@H]2[C@@H]3C[C@H](C)C4=CC(=O)CC[C@]4(C)[C@H]3CC[C@@]21C', 'inactive'),
  ('CC(C)(COC(=O)c1ccccc1)COC(=O)c1ccccc1', 'active'),
  ('CC(=O)OCCC(C)CC(C)(C)C (stereo not given)', 'inactive'),
  ('Cc1ccc(O)c(C(C)(C)C)c1', 'active');

Recorded call for O=C(O)c1cn(-c2ccc(F)cc2)c2cc(N3CCNCC3)c(F)cc2c1=O ?
inactive

What is the recorded call for this compound in the test? COC(=O)c1ccc(C)cc1
inactive

Can you look up the reported call for Cc1cc(C2(c3cc(C)c(O)cc3C)OS(=O)(=O)c3ccccc32)c(C)cc1O for me?
inactive

In this assay, the call recorded for O=C=NC1CCC(CC2CCC(N=C=O)CC2)CC1 (stereo not given) was what?
inactive

###

Experiment: TOX21_p53_BLA_p4_viability: Viability Assessment in the Tox21 HCT-116 p53 Agonism Beta-lactamase Assay, Phase 4 (AID 2283597);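 note: hits lower the luminescence signal meaning cytotoxicity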
Records with an inconclusive call do not appear. The source made the active and inactive calls. Rule for the calls: active = hit-call score of the fitted dose curve at least 0.9, where 1 is the maximum; inconclusive = response in the unintended direction; inactive = score below 0.9.
READOUT TYPE: outcome

A selection of reference data follows.
INSERT INTO assay_data (molecule, reported) VALUES
  ('CCn1c2ccccc2c2cc(N)ccc21', 'inactive'),
  ('OCCOCCOCCOCCO', 'inactive'),
  ('NCCCCCCN', 'inactive'),
  ('O=C(O)c1cccc(C(F)(F)F)c1', 'inactive'),
  ('COc1ccc(Nc2ccccc2)c(C)c1', 'inactive');

Record Clc1nc(C(Cl)(Cl)Cl)c(Cl)c(Cl)c1Cl . Reported outcome: inactive

Record O=c1[nH]nnc2ccccc12 , field outcome: inactive

Summary for this molecule, O=C(O)c1cccc([N+](=O)[O-])c1 : outcome is inactive

Quick note, outcome for OCCN1CCNCC1 landed at inactive

response.value for CN(C)CCCN (field: outcome) = inactive

Quick note, outcome for CCCCOCCOCCSC#N landed at inactive

Documented outcome of Nc1cccc(S(=O)(=O)c2cccc(N)c2)c1 : inactive

outcome in this record for CO[Si](C)(OC)c1ccccc1 : inactive

So, O=C(Cl)c1cccc(C(=O)Cl)c1 ? Its outcome was inactive

For reference, reported outcome for O=C(O)c1ccc(C(=O)O)cc1 stands at inactive

C[C@]12CC[C@H]3[C@@H](CCC4=CC(=O)CC[C@@]43C)[C@@H]1CC[C@@H]2C(=O)CO yielded outcome of inactive

Form field outcome, entry OCC(CO)(CO)COCC(CO)(CO)CO : inactive

Please fill in: outcome reported for CC(C)[C@@H]1CC[C@@H](C)CC1=O = inactive

Value of outcome reported for the molecule COc1ccc(NC(=O)CC(C)=O)cc1 is inactive

Note to self: outcome recorded for O=C(O)c1cn(C2CC2)c2cc(N3CCNCC3)c(F)cc2c1=O was inactive

Short answer for CC1=CCC(O)(C(C)C)CC1 (stereo unspecified) : outcome was inactive

Given item O=C(O)Cc1cccc2ccccc12 , the value recorded as its outcome is inactive

outcome recorded for this molecule, CC(=O)OCCC(C)CC(C)(C)C (stereo unspecified) , is inactive

# molecule Cc1ncc([N+](=O)[O-])n1C ; its outcome = inactive

Please fill in: outcome reported for CCCC1CCC(=O)O1 (stereo unspecified) = inactive
